System: MS2 coat protein
Experiment: apparent KD of MS2 coat protein; designed switch direction (-1 OFF switch, 1 ON switch): 1; higher = weaker reporter binding
Details: Eterna round: R98; input ligand: FMN 200 uM
// apparent KD of MS2 coat protein lookup, one value per entry

residue.sequence: CGAGACACUUGAGGAUAUGCUCAGGAAUACUGAGCAGAAGGCAGGAAAACCUGAGGAUCACCCAGGUAACUGGAAAGUCUCGAA [Same State NG1 - A3C, U17G Submission 5E-G46A]
apparent KD of MS2 coat protein / nM: 16.9
//
residue.sequence: CAUGUCCUCACAGGAUAUGCUGGACUUUGUCCAGCAGAAGGGUGAUAACAUGAGGAUCACCCAUGUGGACAUGAUAUAUUUAAG [Mat - Same State NG 1 - Eli mod - D95]
apparent KD of MS2 coat protein / nM: 623
//
residue.sequence: UCGUGUUUAACAGGAUAUCCUCAACGACACAUGAGGAUCACCCAUGUUCGGAGCCAAAUGGCUUAGGAGAAGGGUUAGAAACAA [Isceenvere]
apparent KD of MS2 coat protein / nM: 75.8
//
residue.sequence: AUAAUAACUUGAGGAUAUGCUCAGGAAUACUGAGCAGAAGGCAGGGAAACCUGAGGAUCACCCAGGUAACUGGAAUAAUAAUAA [Same State NG1 - A3C, U17G Submission 4A]
apparent KD of MS2 coat protein / nM: 25.6
//
residue.sequence: GGUCCAACAUGAGGAUAUGGCACCUUAUUGGUGCCAGAAGGCGUGUCUAUAGACAUGAGGAUCACCCAUGUAAUAAAUUGGACC [SameState #22 NG1]
apparent KD of MS2 coat protein / nM: 45.4
//
residue.sequence: GGACUCACUUGAGGAUAUCGAGUGGAAUACACUCGAGAAGGCAGGAAAACCUGAGGAUCACCCAGGUAAGAGUCCAAUAAUAAU [Same State NG1 - A3C, U17G Submission 3C]
apparent KD of MS2 coat protein / nM: 17.1
//
residue.sequence: GCCAUCGCAUGAGGAUAUGGCACCGUUUCGGUGCCAGAAGGCAUGUCAUAAGACAUGAGGAUCACCCAUGUAAAUAAGAUGGCA [JanderMod 3 - Jieux - Same State NG 1]
apparent KD of MS2 coat protein / nM: 47.9
//
residue.sequence: AAAACAUACCGAGGAUAUUCAUAUAAUAAAUAAACAUGAGGAUCACCCAUUUGGCAAAAGCCUAGGGAGAAGGCGGAAUGCUAA [salish99_SSNG2_r2_119]
apparent KD of MS2 coat protein / nM: 658
//
residue.sequence: GCUGUCGCAUGAGGAUAUGGUCUGCUUUGCAGACCAGAAGGCAUGUCGAUAGACAUGAGGAUCACCCAUGUAGUAAAGACAGCA [Mat - Same State NG 1 - JL Mod - D49]
apparent KD of MS2 coat protein / nM: 57.1
//
residue.sequence: UAUAUAUAAUAUAUUAACAUGAGGAUCACCCAUGUCGCUAGACAGGAUAUAUUUAAUAUUAUUAAGUAGAAGGGUCAUAUAAUU [LRO007_SS NG 3]
apparent KD of MS2 coat protein / nM: 77.4
